# testDescription: Hydrolysis of aromatic ester imine in water / PBS
# Assay type: physicochemical
# experimentalContext: PBS, pH 7, within an hour
experimentalEndpoint: degraded at 1 h (%)
Give the value, in units of %, as a plain number.

Which degraded at 1 h value is on record for O=c1cnc2ccccc2o1 ?
70
